# STUDY_SYSTEM: GST-KLF4-ZF (UniProt O43474)
# Sequence (O43474 whole entry): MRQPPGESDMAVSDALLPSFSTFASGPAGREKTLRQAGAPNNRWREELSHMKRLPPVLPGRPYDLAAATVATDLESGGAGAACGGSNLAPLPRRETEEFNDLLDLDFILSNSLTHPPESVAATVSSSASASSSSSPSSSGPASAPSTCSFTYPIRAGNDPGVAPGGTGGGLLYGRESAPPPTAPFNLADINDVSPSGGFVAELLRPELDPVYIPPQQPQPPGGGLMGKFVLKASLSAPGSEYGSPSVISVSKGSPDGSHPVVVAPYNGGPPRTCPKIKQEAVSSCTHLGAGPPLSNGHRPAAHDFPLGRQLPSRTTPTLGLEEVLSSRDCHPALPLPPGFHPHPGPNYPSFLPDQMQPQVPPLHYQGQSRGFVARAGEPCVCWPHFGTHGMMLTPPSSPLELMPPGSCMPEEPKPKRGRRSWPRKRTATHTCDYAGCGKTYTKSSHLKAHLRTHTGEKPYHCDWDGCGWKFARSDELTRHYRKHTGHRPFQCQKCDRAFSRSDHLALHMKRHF
# EXPERIMENT_NOTES: fluorescence polarization
# MEASUREMENT_PARAMETERS: Pull-down: 150 mM NaCl (or LiCl), 50 mM Tris pH 8, 0.25% NP-40, 1 mM TCEP, protease inhibitors, 4 C, 2 h; EMSA with lysate in same buffer, RT 15 min; FP in …
PARAMETER_MEASURED: Kd (nM)
One number for each entry, in nM.

Which Kd is listed for GAGAGCCCCGCCCCCTGGCT (double strand) [SP/KLF wild-type Cy5] ?
21.8

====

# STUDY_SYSTEM: GST-KLF4-ZF (UniProt O43474)
# EXPERIMENT_NOTES: fluorescence intensity (de-quenching)
# MEASUREMENT_PARAMETERS: Pull-down: 150 mM NaCl (or LiCl), 50 mM Tris pH 8, 0.25% NP-40, 1 mM TCEP, protease inhibitors, 4 C, 2 h; EMSA with lysate in same buffer, RT 15 min; FP in …
PARAMETER_MEASURED: pKd
Give bare numbers, as −log10 of the molar value.

I would be grateful if you could share the reported pKd for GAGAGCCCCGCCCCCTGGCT (double strand) [SP/KLF wild-type Cy5] .
7.69

Data provenance: paper PMC5916898
